Origin of the recorded values: ChEMBL document CHEMBL3399993

# Measurement Protocol: Cytotoxicity against mouse RAW264.7 cells assessed as inhibition of cell growth at 50 uM after 48 hrs by MTT assay
# Assay type: cell-based
# Assay Conditions: read-out: GI
Quantity Measured: inhibition at 48 h, 50 µM (%)
Reply numerically in %, unit not repeated.

The compound identified as Cc1cc(N2CCC(NC(=O)Nc3ccc(F)cc3)CC2)c2cc(F)ccc2n1 registered its inhibition at 48 h, 50 µM at 25.4

Record Cc1ccc(NC(=S)NC2CCN(c3cc(C)nc4ccc(F)cc34)CC2)cc1 . Reported inhibition at 48 h, 50 µM: 23.9

Measured inhibition at 48 h, 50 µM, Cc1ccc(NC(=O)NC2CCN(c3cc(C)nc4ccc(F)cc34)CC2)cc1 : 39.7

Query Cc1ccc(NC(=O)NC2CCN(c3cc(C)nc4ccccc34)CC2)cc1 yields inhibition at 48 h, 50 µM of 51.4

Documented inhibition at 48 h, 50 µM of Cc1cc(N2CCC(NC(=S)Nc3ccc(F)cc3)CC2)c2cc(F)ccc2n1 : 33.9

Documented inhibition at 48 h, 50 µM of Cc1cc(N2CCC(NC(=S)Nc3ccccc3)CC2)c2cc(C(F)(F)F)ccc2n1 : 23.3

Form: compound = Cc1cc(N2CCC(NC(=S)Nc3ccc([N+](=O)[O-])cc3)CC2)c2ccccc2n1 ; inhibition at 48 h, 50 µM = 31.8

So for COc1ccc2nc(C)cc(N3CCC(NC(=S)Nc4ccc(Cl)cc4)CC3)c2c1 , the logged inhibition at 48 h, 50 µM turned out to be 29.7

Per the records, this compound ( Cc1cc(N2CCC(NC(=O)Nc3ccc([N+](=O)[O-])cc3)CC2)c2ccccc2n1 ) has inhibition at 48 h, 50 µM equal to 30.4

Measured inhibition at 48 h, 50 µM of Cc1cc(N2CCC(NC(=S)Nc3ccc(Cl)cc3)CC2)c2cc(F)ccc2n1 : 32.3

Reported inhibition at 48 h, 50 µM for COc1ccc(NC(=S)NC2CCN(c3cc(C)nc4ccc(F)cc34)CC2)cc1 was 21.3

// sample Cc1cc(N2CCC(NC(=O)Nc3ccc([N+](=O)[O-])cc3)CC2)c2cc(F)ccc2n1 , its inhibition at 48 h, 50 µM was 47.9

Per the record, COc1ccc2nc(C)cc(N3CCC(NC(=O)Nc4ccc([N+](=O)[O-])cc4)CC3)c2c1 has inhibition at 48 h, 50 µM of 35

Lookup result for Cc1cc(N2CCC(NC(=O)Nc3ccc(Cl)cc3)CC2)c2cc(C(F)(F)F)ccc2n1 ; measured inhibition at 48 h, 50 µM: 29.1

Reported inhibition at 48 h, 50 µM ( Cc1cc(N2CCC(NC(=O)Nc3ccccc3)CC2)c2cc(C(F)(F)F)ccc2n1 ) = 20.1

Value of measured inhibition at 48 h, 50 µM for the entry COc1ccc(NC(=O)NC2CCN(c3cc(C)nc4ccc(C(F)(F)F)cc34)CC2)cc1 : 29

The recorded inhibition at 48 h, 50 µM for entry COc1ccc2nc(C)cc(N3CCC(NC(=O)Nc4ccc(C)cc4)CC3)c2c1 equals 28.2

inhibition at 48 h, 50 µM recorded for this compound, COc1ccc2nc(C)cc(N3CCC(NC(=S)Nc4ccc(F)cc4)CC3)c2c1 , is 29.3

In plain terms, Cc1cc(N2CCC(NC(=S)Nc3ccc(F)cc3)CC2)c2cc(C(F)(F)F)ccc2n1 has a documented inhibition at 48 h, 50 µM of 50.7

For this compound ( Cc1ccc(NC(=S)NC2CCN(c3cc(C)nc4ccc(C(F)(F)F)cc34)CC2)cc1 ), measured inhibition at 48 h, 50 µM is 19.3

###

# Measurement Protocol: Cytotoxicity against mouse RAW264.7 cells assessed as inhibition of cell growth at 50 uM after 48 hrs by MTT assay
# Assay type: cell-based
# Assay Conditions: read-out: GI
Quantity Measured: inhibition at 48 h, 50 µM (%)
Answer format: numeric, % implied, no suffix.

In plain terms, Cc1cc(N2CCC(NC(=S)Nc3ccc([N+](=O)[O-])cc3)CC2)c2cc(C(F)(F)F)ccc2n1 has a documented inhibition at 48 h, 50 µM of 19.8

Looking up Cc1cc(N2CCC(NC(=O)Nc3ccc(F)cc3)CC2)c2cc(C(F)(F)F)ccc2n1 , I found its inhibition at 48 h, 50 µM recorded as 39.8

The reported value for Cc1cc(N2CCC(NC(=O)Nc3ccc(Cl)cc3)CC2)c2ccccc2n1 in terms of inhibition at 48 h, 50 µM is 40.1

The measured inhibition at 48 h, 50 µM associated with COc1ccc(NC(=S)NC2CCN(c3cc(C)nc4ccc(OC)cc34)CC2)cc1 reads 31.8

The recorded inhibition at 48 h, 50 µM for COc1ccc2nc(C)cc(N3CCC(NC(=O)Nc4ccc(Cl)cc4)CC3)c2c1 is 42.4

###

# System: DNA gyrase subunit A/DNA gyrase subunit B (Mycobacterium tuberculosis (strain ATCC 25618 / H37Rv), UniProt P9WG45+P9WG47)
# Sequence (P9WG45 whole entry): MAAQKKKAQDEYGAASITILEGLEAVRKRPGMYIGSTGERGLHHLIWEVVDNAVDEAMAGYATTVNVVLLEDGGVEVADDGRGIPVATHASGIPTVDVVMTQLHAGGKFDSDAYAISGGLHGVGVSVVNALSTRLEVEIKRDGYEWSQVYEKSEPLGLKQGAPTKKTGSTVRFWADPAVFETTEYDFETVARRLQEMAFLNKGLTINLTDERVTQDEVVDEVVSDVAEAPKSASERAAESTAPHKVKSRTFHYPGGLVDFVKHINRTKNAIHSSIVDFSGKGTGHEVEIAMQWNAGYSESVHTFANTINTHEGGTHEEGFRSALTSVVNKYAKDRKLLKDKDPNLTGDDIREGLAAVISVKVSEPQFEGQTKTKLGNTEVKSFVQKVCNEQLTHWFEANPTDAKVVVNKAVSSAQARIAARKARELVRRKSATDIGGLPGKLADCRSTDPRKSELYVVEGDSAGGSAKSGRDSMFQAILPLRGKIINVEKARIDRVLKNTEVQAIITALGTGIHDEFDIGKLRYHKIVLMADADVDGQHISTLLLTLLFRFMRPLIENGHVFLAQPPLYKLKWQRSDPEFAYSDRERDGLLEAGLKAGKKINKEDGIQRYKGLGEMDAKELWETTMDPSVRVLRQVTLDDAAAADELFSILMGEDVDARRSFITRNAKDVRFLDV
# Sequence (P9WG47 whole entry): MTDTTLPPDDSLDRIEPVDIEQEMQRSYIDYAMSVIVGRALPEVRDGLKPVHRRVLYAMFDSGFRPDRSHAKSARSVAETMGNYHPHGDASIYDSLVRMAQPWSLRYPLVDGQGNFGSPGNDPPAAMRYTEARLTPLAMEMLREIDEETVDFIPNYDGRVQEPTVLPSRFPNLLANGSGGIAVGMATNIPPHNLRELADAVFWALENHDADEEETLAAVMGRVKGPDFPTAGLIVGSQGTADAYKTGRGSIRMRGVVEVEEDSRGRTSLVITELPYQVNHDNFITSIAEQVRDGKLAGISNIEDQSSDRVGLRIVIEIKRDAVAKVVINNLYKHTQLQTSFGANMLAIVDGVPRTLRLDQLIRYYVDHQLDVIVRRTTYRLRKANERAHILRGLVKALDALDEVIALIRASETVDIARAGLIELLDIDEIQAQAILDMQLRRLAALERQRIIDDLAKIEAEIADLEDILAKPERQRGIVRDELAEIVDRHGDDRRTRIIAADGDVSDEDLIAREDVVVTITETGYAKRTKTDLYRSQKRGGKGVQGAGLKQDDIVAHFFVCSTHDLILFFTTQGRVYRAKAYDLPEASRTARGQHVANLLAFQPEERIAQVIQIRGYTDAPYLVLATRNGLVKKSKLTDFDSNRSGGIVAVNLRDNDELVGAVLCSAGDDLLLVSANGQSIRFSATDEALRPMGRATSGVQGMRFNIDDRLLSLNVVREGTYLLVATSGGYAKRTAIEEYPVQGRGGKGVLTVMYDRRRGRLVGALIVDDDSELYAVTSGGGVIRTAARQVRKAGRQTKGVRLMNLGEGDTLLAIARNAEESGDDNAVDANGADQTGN
# Measurement Protocol: Inhibition of Mycobacterium tuberculosis GyrA/GyrB using relaxed pBR322 substrate incubated for 30 mins by ethidium bromide staining and electrophoresis based DNA supercoiling assay
Exercise: state measured log10 of IC50 for each of the compounds provided.
Please note: log10 values; quantity IC50; unit µM.

Lab note: COc1ccc(NC(=O)NC2CCN(c3cc(C)nc4ccc(OC)cc34)CC2)cc1 gave log10 of IC50 of 0.77

Lookup result for COc1ccc2nc(C)cc(N3CCC(NC(=S)Nc4ccccc4)CC3)c2c1 ; measured log10 of IC50: -0.04

log10 of IC50 measured on Cc1cc(N2CCC(NC(=S)Nc3ccc(F)cc3)CC2)c2cc(C(F)(F)F)ccc2n1 = 1.36

For this compound ( Cc1cc(N2CCC(NC(=O)Nc3ccc(Cl)cc3)CC2)c2ccccc2n1 ), measured log10 of IC50 is 0.91

Per the record, Cc1cc(N2CCC(NC(=S)Nc3ccc(Cl)cc3)CC2)c2ccccc2n1 has log10 of IC50 of 0.91

###

# System: DNA gyrase subunit A/DNA gyrase subunit B (Mycobacterium tuberculosis (strain ATCC 25618 / H37Rv), UniProt P9WG45+P9WG47)
# Measurement Protocol: Inhibition of Mycobacterium tuberculosis GyrA/GyrB using relaxed pBR322 substrate incubated for 30 mins by ethidium bromide staining and electrophoresis based DNA supercoiling assay
Quantity Measured: IC50 (µM)
Value expressed in µM; do not type the unit.

So, Cc1cc(N2CCC(NC(=S)Nc3ccc(F)cc3)CC2)c2cc(F)ccc2n1 ? Its IC50 was 23.5

Query Cc1cc(N2CCC(NC(=O)Nc3ccc([N+](=O)[O-])cc3)CC2)c2cc(C(F)(F)F)ccc2n1 yields IC50 of 22.3

Briefly, IC50 measured for Cc1ccc(NC(=S)NC2CCN(c3cc(C)nc4ccccc34)CC2)cc1 : 2.66

Entry Cc1cc(N2CCC(NC(=S)Nc3ccccc3)CC2)c2cc(C(F)(F)F)ccc2n1 — recorded IC50 = 29.4

Please fill in: IC50 reported for Cc1cc(N2CCC(NC(=O)Nc3ccccc3)CC2)c2cc(F)ccc2n1 = 9.84

Lookup result for COc1ccc2nc(C)cc(N3CCC(NC(=S)Nc4ccc(Cl)cc4)CC3)c2c1 ; measured IC50: 0.62

Looking up Cc1cc(N2CCC(NC(=O)Nc3ccc(Cl)cc3)CC2)c2cc(F)ccc2n1 , I found its IC50 recorded as 29.6

// recorded IC50 for Cc1cc(N2CCC(NC(=O)Nc3ccc(Cl)cc3)CC2)c2cc(C(F)(F)F)ccc2n1 : 17.3

Lookup result for COc1ccc2nc(C)cc(N3CCC(NC(=O)Nc4ccc([N+](=O)[O-])cc4)CC3)c2c1 ; measured IC50: 5.33

// recorded IC50 for COc1ccc2nc(C)cc(N3CCC(NC(=S)Nc4ccc(C)cc4)CC3)c2c1 : 7.94

Per the record, COc1ccc(NC(=S)NC2CCN(c3cc(C)nc4ccccc34)CC2)cc1 has IC50 of 13.5

Lab book: IC50 of Cc1cc(N2CCC(NC(=O)Nc3ccc([N+](=O)[O-])cc3)CC2)c2cc(F)ccc2n1 noted as 2.14

Just so you know, measured IC50 for COc1ccc2nc(C)cc(N3CCC(NC(=O)Nc4ccccc4)CC3)c2c1 came out at 9.32

Entry COc1ccc(NC(=O)NC2CCN(c3cc(C)nc4ccc(F)cc34)CC2)cc1 — recorded IC50 = 7.62

###

Please go through the items and note down their inhibition at 48 h, 50 µM.
# Measurement Protocol: Cytotoxicity against mouse RAW264.7 cells assessed as inhibition of cell growth at 50 uM after 48 hrs by MTT assay
# Type: cell-based
# Assay Conditions: read-out: GI
Only the number, expressed in %, is required.

inhibition at 48 h, 50 µM measured on COc1ccc2nc(C)cc(N3CCC(NC(=S)Nc4ccccc4)CC3)c2c1 = 41.9

In plain terms, Cc1cc(N2CCC(NC(=S)Nc3ccccc3)CC2)c2ccccc2n1 has a documented inhibition at 48 h, 50 µM of 11.8

So for Cc1cc(N2CCC(NC(=S)Nc3ccc(Cl)cc3)CC2)c2ccccc2n1 , the logged inhibition at 48 h, 50 µM turned out to be 20.8

The recorded inhibition at 48 h, 50 µM for Cc1ccc(NC(=O)NC2CCN(c3cc(C)nc4ccc(C(F)(F)F)cc34)CC2)cc1 is 16.2

response.value for Cc1cc(N2CCC(NC(=O)Nc3ccc([N+](=O)[O-])cc3)CC2)c2cc(C(F)(F)F)ccc2n1 (field: inhibition at 48 h, 50 µM) = 48.2

# inhibition at 48 h, 50 µM of COc1ccc(NC(=O)NC2CCN(c3cc(C)nc4ccc(F)cc34)CC2)cc1 = 49.7

inhibition at 48 h, 50 µM reading for COc1ccc(NC(=O)NC2CCN(c3cc(C)nc4ccccc34)CC2)cc1 : 49.5

The molecule identified as COc1ccc(NC(=S)NC2CCN(c3cc(C)nc4ccccc34)CC2)cc1 registered its inhibition at 48 h, 50 µM at 21.9

Just so you know, measured inhibition at 48 h, 50 µM for Cc1cc(N2CCC(NC(=S)Nc3ccc(Cl)cc3)CC2)c2cc(C(F)(F)F)ccc2n1 came out at 11.8

Measured inhibition at 48 h, 50 µM, Cc1cc(N2CCC(NC(=O)Nc3ccccc3)CC2)c2cc(F)ccc2n1 : 48.9
